Give measured apparent KD of MS2 coat protein for each item. Keep answers brief.
- Tested on: MS2 coat protein
- Experiment Description: apparent KD of MS2 coat protein, switch OFF state (with FMN for OFF switches, without FMN for ON switches); designed switch direction (-1 OFF switch, 1 ON switch): 1; higher = weaker reporter binding
- Protocol Conditions: FMN input: 0 or 200 uM; Eterna round: R93 (includes R88 designs)
Just the number please, in nM, no unit attached.

q: Query (sequence): AAAACACAUGAGGAUCACCCAUGUGCCUAAUUCGCAGGAUAUUUCUCGAUUAAAUGAUAGGAAGAAGGGUGAUAAA [Nob's Hobby 36 - Jieux - Same State 1] ; field requested: apparent KD of MS2 coat protein
a: 40.9

q: One more sequence: AAAAAACAUGAGGAUCACCCAUGUCGAAAGACGUGAGGAUAUGUACAGACUUCGGUCUGUACAGAAGGCAUGUAAA [SS1 - 1054]
a: 1110

q: What about GAAAAACAUGAGGAUCACCCAUGUAAGAUAAACACAGGAUAUGCGAAAAGAAACAAAGAAGCAGAAGGGUGAAGAA [Mat - Same State 1 - Tesla mod - 46] ?
a: 30.2

q: And the next one, AAAAGACAUGAGGAUCACCCAUGUAAAAACAUGGGAGGAUAUGCAUGGAAAACAUGCUGUGCAGAAGGCUCAUGUC [SS1 - 18] ?
a: 25.5

q: Same lookup for AAAAAUCCAGCGCAGGAUAUCGCAGGGUGCACAUGAGGAUCACCCAUGUGUACCCAAACACCCUGCGAGAAGGGCGUUGGAAAAAA [SameState-I] , please.
a: 11.1

q: And CGAAGACAUGAGGAUCACCCAUGUGGGAAUAUGGGAGGAUAUACAAAGACGAGAGUCAGAGUAGAAGGCCUAGGAG [salish99-ss1-106] ?
a: 59.3

q: What would you report for AUAAAACAUGAGGAUCACCCAUGUCAACAAAGUCGAGGAUAUGGGCAAAUAAAAUAAGAACCAGAAGGCGAAUAAU [Teenbexe] ?
a: 593

q: How about this sequence: AAUAUAUUAAGUGAGGAUAUCGAAGAAAAAACAUGAGGAUCACCCAUGUGGGAAACCUGGUCGGGUGAGAAGGCACUUAAUAUAU [Samwise Clockwise 27 - Jieux - Same State 2]
a: 85.4

* * *

- System: MS2 coat protein
- Experiment Description: apparent KD of MS2 coat protein; designed switch direction (-1 OFF switch, 1 ON switch): -1; higher = weaker reporter binding
- Protocol Conditions: input ligand: microRNA oligo, concentration not stated
Kindly state apparent KD of MS2 coat protein for each of the entries shown.
Dear colleague, please return just the value in nM, with no unit written.

q: Returns the measured apparent KD of MS2 coat protein for the input sequence. Input: CUGGACCCGGCAGGAUAUAUUGUGGGCGGGCGUGGAACGACAUGAGGAUCACCCAUGUGAUUGAGGUAGAAGGGCCGAGAGGUC [Excl-NG2-LRO20] (Eterna round: R96, puzzle: Exclusion NG 2)
a: 30.6

q: Try GGCUAGUCAGGAUAUACGAACAUGUCAAAAGACGUGAAGGGACAUGAGGAUCACCCAUGUAGAAGGGACUAGCA [salish99-ex2-12] (Eterna round: R96, puzzle: Exclusion 2) next.
a: 21

q: For UUUCUUCAUAUCACAUGAGGAUCACCCAUGUUAUUCAUCGCGUAGGAUAUCGAGAAUUUUAAAUACGAGAAGGACGUAUUGAUA [JR_ExcNG3_Sub072] (Eterna round: R96, puzzle: Exclusion NG 3) then?
a: 31.1
